# Test system: Escherichia coli UB1005
# Test Settings: UB1005, 24 h
Ends that are not written are not given here.
Assignment: determine reported MIC E. coli UB 1005 for the given substances.
Give just the numeric value; µM need not be written.

query: Look at this substance and give its reported MIC E. coli UB 1005. RLKKIGKVLKWI-NH2 [RI12]
result: 16

query: Dear colleague, I am looking for the recorded MIC E. coli UB 1005 of the following substance: GVFRVLRKVTRVVLKVIGKVLKWI-NH2 [GI24-V6]
result: 4

query: Which value of MIC E. coli UB 1005 has been reported for GRFRRLRKKTRKRLKKIGKVLKKI-NH2 [GI24-W23K] in the records?
result: 16

query: For the substance shown here, GRFRRLRKKTRKRLKKIGKVLKLI-NH2 [GI24-W23L] , give the reported MIC E. coli UB 1005.
result: 2

query: Any idea what MIC E. coli UB 1005 was measured for GRFRRLRKKTRKRLKKIGKVLKWI-NH2 [GI24] ?
result: 2

query: Look at this substance and give its reported MIC E. coli UB 1005. GRFRRLRKKTRKRLKKIGKVLKWIPPIVGSIPLGCG-NH2 [PMAP-36, porcine myeloid antimicrobial peptide-36]
result: 2

query: Look up MIC E. coli UB 1005 for this substance: GRFRRLRKKTRKRLKKIGKVLKAI-NH2 [GI24-W23A]
result: 16

query: Returns the measured MIC E. coli UB 1005 for the input substance. Input: GRFRRLRKKTRK-NH2 [GK12]
result: 128

query: I have this substance here, GVFRRLRKVTRKVLKKIGKVLKWI-NH2 [GI24-V3] , and I need its recorded MIC E. coli UB 1005.
result: 4
